MIC data for Staphylococcus aureus MTCC 96 follow.
Enter your answer as a number in µg/mL; do not include the unit.

Below are worked cases with known answers.
[[record]]
compound = "COc1c(N2CCc3sccc3C2)c(F)c([N+](=O)[O-])c2c(=O)c(C(=O)O)cn(C3CC3)c12 [Compound 15]"
parameter_measured = "MIC"
result_value = 1

[[record]]
compound = "COc1c(N2CCc3sc(C(=O)O)cc3C2)c(F)cc2c(=O)c(C(=O)O)cn(C3CC3)c12 [Compound 22]"
parameter_measured = "MIC"
result_value = 4

[[record]]
compound = "O=C(O)c1cn(C2CC2)c2cc(N3CCNCC3)c(F)cc2c1=O [Ciprofloxacin, ciprofloxacin, reference compound]"
parameter_measured = "MIC"
result_value = 0.25


Req: MIC lookup needed for COc1c(N2CCc3sc(CO)cc3C2)c(F)cc2c(=O)c(C(=O)O)cn(C3CC3)c12 [Compound 21] , thanks.
Resp: 0.25

Req: Now give it for COc1c(N2CCc3sc([N+](=O)[O-])cc3C2)c(F)cc2c(=O)c(C(=O)O)cn(C3CC3)c12 [Compound 19] too.
Resp: 0.25

----------
Parameter MIC, tested on Staphylococcus aureus MTCC 96, listed per item.

[[record]]
compound_structure = "COc1c(N2CCc3sccc3C2)c(F)cc2c(=O)c(C(=O)O)cn(C3CC3)c12"
parameter_measured = "MIC"
result_value = "≤ 0.12 µg/mL"

[[record]]
compound_structure = "COc1c(N2CCc3sc(C=O)cc3C2)c(F)cc2c(=O)c(C(=O)O)cn(C3CC3)c12"
parameter_measured = "MIC"
result_value = "≤ 0.12 µg/mL"


Now, please, on to the next compound.
Req: // lookup MIC for `O=C(O)c1cn(C2CC2)c2cc(N3CCc4sccc4C3)c(F)cc2c1=O`
Resp: 0.25 µg/mL

----------
- Test system: Staphylococcus aureus ATCC 25923
parameter.measured: MIC (µg/mL)
# unit: µg/mL | format: bare number

// solved cases for MIC follow
[[record]]
compound = "O=C(O)c1cn(C2CC2)c2cc(N3CCc4sccc4C3)c(F)cc2c1=O"
test_system = "Staphylococcus aureus ATCC 25923"
unit_abbreviation = "µg/mL"
result_value = 0.5

[[record]]
compound = "O=C(O)c1cn(C2CC2)c2cc(N3CCNCC3)c(F)cc2c1=O [Ciprofloxacin, ciprofloxacin, reference compound]"
test_system = "Staphylococcus aureus ATCC 25923"
unit_abbreviation = "µg/mL"
result_value = 0.5

[[record]]
compound = "COc1c(N2CCc3sccc3C2)c(F)cc2c(=O)c(C(=O)O)cn(C3CC3)c12"
test_system = "Staphylococcus aureus ATCC 25923"
unit_abbreviation = "µg/mL"
result_value = 0.5

[[record]]
compound = "Nc1c(F)c(N2CCc3sccc3C2)c(F)c2c1c(=O)c(C(=O)O)cn2C1CC1"
test_system = "Staphylococcus aureus ATCC 25923"
unit_abbreviation = "µg/mL"
result_value = 0.5


Req: I am curious: what MIC value has been reported for COc1c(N2CCNC(C)C2)c(F)cc2c(=O)c(C(=O)O)cn(C3CC3)c12 (centres unmarked) [Gatifloxacin, gatifloxacin, reference compound] ?
Resp: 0.25

Values were extracted from patent US20070275994A1.
